# Kb annotations
- System Tested: Gastrin (Rattus norvegicus, UniProt P30553)
- Construct: The stomach was excised and flushed with ca. 1 ml unbuffered physiological saline solution; from tissue; host or cells: isolated whole stomach of immature rats (33-50 g, ca. 21 days old)
- Sequence (P30553 whole entry): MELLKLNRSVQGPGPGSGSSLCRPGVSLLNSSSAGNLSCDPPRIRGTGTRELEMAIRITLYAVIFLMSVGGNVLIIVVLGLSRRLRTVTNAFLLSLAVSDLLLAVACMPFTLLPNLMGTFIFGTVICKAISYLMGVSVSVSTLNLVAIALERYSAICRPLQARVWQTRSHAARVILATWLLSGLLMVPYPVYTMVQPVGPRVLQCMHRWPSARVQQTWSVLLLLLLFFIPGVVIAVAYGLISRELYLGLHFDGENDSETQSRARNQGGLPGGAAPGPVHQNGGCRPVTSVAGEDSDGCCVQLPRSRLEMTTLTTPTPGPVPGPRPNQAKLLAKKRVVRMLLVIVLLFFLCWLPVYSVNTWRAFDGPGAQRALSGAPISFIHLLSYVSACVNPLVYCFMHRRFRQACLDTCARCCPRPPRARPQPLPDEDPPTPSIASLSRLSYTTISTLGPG
- Measurement Description: gastrin antagonist activity in an immature rat stomach assay (pentagastrin-stimulated acid secretion, isolated stomach)
- Test Conditions: cumulative pentagastrin dose-response curves, 60 min after drug, read-out: Gastrin pKB (converted)

>  <Molecule>
O=C(O)c1cc(NC(=O)[C@H](Cc2ccccc2)NC(=O)c2ccccc2C(=O)NCC23CC4CC(CC(C4)C2)C3)cc(C(=O)O)c1 [Example 1]

>  <System Tested>
Gastrin (Rattus norvegicus, UniProt P30553)

>  <Kb, nM>
3.98

$$$$
>  <Molecule>
COc1ccc(C(=O)N[C@@H](Cc2ccccc2)C(=O)Nc2cc(C(=O)O)cc(C(=O)O)c2)c(C(=O)NCC23CC4CC(CC(C4)C2)C3)c1 [Example 18]

>  <System Tested>
Gastrin (Rattus norvegicus, UniProt P30553)

>  <Kb, nM>
31.6

$$$$
>  <Molecule>
O=C(O)c1cc(NC(=O)[C@@H](Cc2ccccc2)NC(=O)c2ccccc2C(=O)NCC23CC4CC(CC(C4)C2)C3)cc(C(=O)O)c1 [Example 3]

>  <System Tested>
Gastrin (Rattus norvegicus, UniProt P30553)

>  <Kb, nM>
15.8

$$$$
>  <Molecule>
Nc1ccc(C(=O)N[C@@H](Cc2ccccc2)C(=O)Nc2cc(C(=O)O)cc(C(=O)O)c2)c(C(=O)NCC23CC4CC(CC(C4)C2)C3)c1 [Example 16]

>  <System Tested>
Gastrin (Rattus norvegicus, UniProt P30553)

>  <Kb, nM>
63.1

$$$$
>  <Molecule>
COc1ccc(C(=O)N[C@@H](Cc2ccccc2F)C(=O)Nc2cc(C(=O)O)cc(C(=O)O)c2)c(C(=O)NCC23CC4CC(CC(C4)C2)C3)c1 [Example 28]

>  <System Tested>
Gastrin (Rattus norvegicus, UniProt P30553)

>  <Kb, nM>
12.6

$$$$
>  <Molecule>
CNc1ccc(C(=O)N[C@@H](Cc2ccccc2)C(=O)Nc2cc(C(=O)O)cc(C(=O)O)c2)c(C(=O)NCC23CC4CC(CC(C4)C2)C3)c1 [Example 24]

>  <System Tested>
Gastrin (Rattus norvegicus, UniProt P30553)

>  <Kb, nM>
5.01

$$$$
>  <Molecule>
Nc1ccc(C(=O)NCC23CC4CC(CC(C4)C2)C3)c(C(=O)N[C@@H](Cc2ccccc2)C(=O)Nc2cc(C(=O)O)cc(C(=O)O)c2)c1 [Example 17]

>  <System Tested>
Gastrin (Rattus norvegicus, UniProt P30553)

>  <Kb, nM>
20

$$$$
>  <Molecule>
O=C(O)c1cc(NC(=O)[C@H](Cc2ccccc2)NC(=O)c2c[nH]cc2C(=O)NCC23CC4CC(CC(C4)C2)C3)cc(C(=O)O)c1 [Example 13]

>  <System Tested>
Gastrin (Rattus norvegicus, UniProt P30553)

>  <Kb, nM>
25.1

$$$$
>  <Molecule>
O=C(O)c1cc(NC(=O)[C@H](Cc2ccccc2)NC(=O)c2ccc([N+](=O)[O-])cc2C(=O)NCC23CC4CC(CC(C4)C2)C3)cc(C(=O)O)c1 [Example 14]

>  <System Tested>
Gastrin (Rattus norvegicus, UniProt P30553)

>  <Kb, nM>
100

$$$$
>  <Molecule>
COc1ccc(C(=O)NCC23CC4CC(CC(C4)C2)C3)c(C(=O)N[C@@H](Cc2ccccc2)C(=O)Nc2cc(C(=O)O)cc(C(=O)O)c2)c1 [Example 19]

>  <System Tested>
Gastrin (Rattus norvegicus, UniProt P30553)

>  <Kb, nM>
12.6

$$$$
>  <Molecule>
O=C(O)c1cc(NC(=O)[C@H](Cc2ccccc2)NC(=O)c2cccc3c2C(=O)N(CC24CC5CC(CC(C5)C2)C4)C3)cc(C(=O)O)c1 [Example 26]

>  <System Tested>
Gastrin (Rattus norvegicus, UniProt P30553)

>  <Kb, nM>
63.1

$$$$
>  <Molecule>
O=C(O)c1cc(NC(=O)[C@H](Cc2ccccc2)NC(=O)c2cc([N+](=O)[O-])ccc2C(=O)NCC23CC4CC(CC(C4)C2)C3)cc(C(=O)O)c1 [Example 15]

>  <System Tested>
Gastrin (Rattus norvegicus, UniProt P30553)

>  <Kb, nM>
316

$$$$
>  <Molecule>
COc1ccc(C(=O)NCC23CC4CC(CC(C4)C2)C3)c(C(=O)N[C@@H](Cc2ccccc2F)C(=O)Nc2cc(C(=O)O)cc(C(=O)O)c2)c1 [Example 29]

>  <System Tested>
Gastrin (Rattus norvegicus, UniProt P30553)

>  <Kb, nM>
1580

$$$$
>  <Molecule>
CN(C)c1ccc(C(=O)N[C@@H](Cc2ccccc2)C(=O)Nc2cc(C(=O)O)cc(C(=O)O)c2)c(C(=O)NCC23CC4CC(CC(C4)C2)C3)c1 [Example 25]

>  <System Tested>
Gastrin (Rattus norvegicus, UniProt P30553)

>  <Kb, nM>
2.51

$$$$
>  <Molecule>
O=C(O)c1cc(NC(=O)[C@H](Cc2ccc(O)cc2)NC(=O)c2ccccc2C(=O)NCC23CC4CC(CC(C4)C2)C3)cc(C(=O)O)c1 [Example 2]

>  <System Tested>
Gastrin (Rattus norvegicus, UniProt P30553)

>  <Kb, nM>
25.1

$$$$
>  <Molecule>
O=C(O)c1cc(NC(=O)[C@H](Cc2ccccc2)NC(=O)c2ncccc2C(=O)NCC23CC4CC(CC(C4)C2)C3)cc(C(=O)O)c1 [Example 10]

>  <System Tested>
Gastrin (Rattus norvegicus, UniProt P30553)

>  <Kb, nM>
39.8

$$$$
>  <Molecule>
O=C(O)c1cc(NC(=O)[C@H](Cc2ccccc2)NC(=O)c2cc(O)ccc2C(=O)NCC23CC4CC(CC(C4)C2)C3)cc(C(=O)O)c1 [Example 23]

>  <System Tested>
Gastrin (Rattus norvegicus, UniProt P30553)

>  <Kb, nM>
126

$$$$
